- tested_target: Mcl-1 (Homo sapiens (Human))
- experiment_notes: TR-FRET binding assay, FITC-Bak peptide and MBP-tagged Mcl-1
- condition_summary: read-out: Ki for Inhibition of Mcl-1 by TR-FRET assay
pKi: −log10 of the molar value.
Catalogue of pKi readings, one per entry.

Value wanted: pKi (Mcl-1 (Homo sapiens (Human))) of entry COc1ccc(N2C[C@@H](C)n3c(c(CCCOc4cc(C)c(Cl)c(C)c4)c4ccc(Cl)c(-c5c(C)n[nH]c5C)c43)C2=O)c2c1cc(C(=O)O)n2C
> 9.70

Next:
Value wanted: pKi (Mcl-1 (Homo sapiens (Human))) of entry Cc1cc(N2C[C@@H](C)n3c(c(CCCOc4cc(C)c(Cl)c(C)c4)c4ccc(Cl)c(-c5c(C)nn(C)c5C)c43)C2=O)c2c(c1)cc(C(=O)O)n2Cc1cc(N2CCOCC2)ccn1
> 9.70

Value wanted: pKi (Mcl-1 (Homo sapiens (Human))) of entry Cc1cc(OCCCc2c3n(c4c(-c5c(C)nn(C)c5C)c(Cl)ccc24)[C@H](C)CN(c2cc(OCCN(C)C)cc4cc(C(=O)O)n(Cc5ccccn5)c24)C3=O)cc(C)c1Cl
> 9.70

###

Catalogue of GI50 readings, one per entry.
- Test system: H929 human cancer cell lines
- experiment_notes: Cellular viability / proliferation (Cell TiterGlo, 72 h)
- Assay type: cell-based
- condition_summary: Homo sapiens, NCI-H929, 72 h, read-out: GI50 on cellular proliferation of H929 human cancer cell lines, H929 cells, 72 h, Cell TiterGlo, 10% FBS
- Description: Cellular Viability of Human Tumor Cell Lines To evaluate compound effect on cellular proliferation, cells were plated at 1,000 cells/well in 96-well tissue culture plates in a total volume of 90 μL medium supplemented with 10% FBS (Sigma, Saint Louis, Mo.). […] Luminescence is measured on a BioTek Cytation 3. Luminescence values are imported into a template in XLFit (Guildford, Surrey, UK) that uses a four-parameter fit to generate an IC50 value for each compound dilution series on the plate.
A number alone suffices; assume nM.

Return reported GI50; argument: Cc1cc(OCCCc2c3n(c4c(-c5c(C)nn(C)c5C)c(Cl)ccc24)[C@H](C)CN(c2ccc4cc(C(=O)O)ccc4c2)C3=O)cc(C)c1Cl [Example 185]
2900

Next:
Return reported GI50; argument: Cc1cc(OCCCc2c3n(c4c(-c5c(C)nn(C)c5C)c(Cl)ccc24)[C@H](C)CN(c2cccc4c2cc(-c2nn[nH]n2)n4C)C3=O)cc(C)c1Cl [Example 307]
3500

Return reported GI50; argument: COc1cc(C(=O)O)cc(N2CCCn3c(c(CCCOc4cc(C)c(Cl)c(C)c4)c4ccc(Cl)c(-c5c(C)nn(C)c5C)c43)C2=O)c1OCCOc1ccccc1F [Example 65]
5500

Return reported GI50; argument: Cc1cc(N2C[C@@H](C)n3c(c(CCCOc4cc(C)c(Cl)c(C)c4)c4ccc(Cl)c(-c5c(C)ncnc5C)c43)C2=O)c2c(c1)c(C)c(C(=O)O)n2C [Example 339]
320

###

- tested_target: Mcl-1 (Homo sapiens (Human), UniProt Q07820)
- Sequence (Q07820 172-327): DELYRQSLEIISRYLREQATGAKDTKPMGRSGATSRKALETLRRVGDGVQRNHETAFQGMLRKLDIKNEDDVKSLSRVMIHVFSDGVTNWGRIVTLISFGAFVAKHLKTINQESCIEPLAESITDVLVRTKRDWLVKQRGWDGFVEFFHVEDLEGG
- experiment_notes: TR-FRET binding assay, FITC-Bak peptide and MBP-tagged Mcl-1
- condition_summary: read-out: Ki for Inhibition of Mcl-1 by TR-FRET assay
pKi: −log10 of the molar value.
measure: pKi

Past entries and their recorded results:
Value wanted: pKi (Mcl-1 (Homo sapiens (Human), UniProt Q07820)) of entry COc1cc(N2C[C@@H](C)n3c(c(CCCOc4cc(C)c(Cl)c(C)c4)c4ccc(Cl)c(-c5c(C)nn(C)c5C)c43)C2=O)c2c(c1)cc(C(=O)O)n2Cc1cccc(C)n1
> 9.70

Value wanted: pKi (Mcl-1 (Homo sapiens (Human), UniProt Q07820)) of entry Cc1cc(OCCCc2c3n(c4c(-c5c(C)nn(C)c5C)c(Cl)ccc24)[C@H](C)CN(c2cc(CCN4CCCCC4)cc4cc(C(=O)O)n(C)c24)C3=O)cc(C)c1Cl
> 9.70

Next:
Value wanted: pKi (Mcl-1 (Homo sapiens (Human), UniProt Q07820)) of entry Cc1cc(OCCCc2c3n(c4c(-c5c(C)nn(C)c5C)c(Cl)ccc24)[C@H](C)CN(c2cn(CCN(C)C)c4ccc(C(=O)O)cc24)C3=O)cc(C)c1Cl
> 9.70

###

Catalogue of GI50 readings, one per entry.
- Tested on: H929 human cancer cell lines
- experiment_notes: Cellular viability / proliferation (Cell TiterGlo, 72 h)
- Assay type: cell-based
- condition_summary: Homo sapiens, NCI-H929, 72 h, read-out: GI50 on cellular proliferation of H929 human cancer cell lines, H929 cells, 72 h, Cell TiterGlo, 10% FBS
A number alone suffices; assume nM.

Past entries and their recorded results:
Value wanted: GI50 (H929 human cancer cell lines) of entry Cc1cc(OCCCc2c3n(c4c(-c5c(C)nn(C)c5C)c(Cl)ccc24)[C@H](C)CN(c2cc(C(=O)O)c4cn(CCN5CCOCC5)nc4c2)C3=O)cc(C)c1Cl [Example 57]
1700

Value wanted: GI50 (H929 human cancer cell lines) of entry Cc1cc(OCCCc2c3n(c4c(-c5c(C)nn(C)c5C)c(Cl)ccc24)[C@H](C)CN(c2nn(C)c4cc(C(=O)O)ccc24)C3=O)cc(C)c1Cl [Example 48]
800

Value wanted: GI50 (H929 human cancer cell lines) of entry Cc1cc(OCCCc2c3n(c4c(-c5c(C)nn(C)c5C)c(Cl)ccc24)[C@H](C)CN(c2cccc4c2cc(C(=O)O)n4CCN2CCOCC2)C3=O)cc(C)c1Cl [Example 367]
400

Value wanted: GI50 (H929 human cancer cell lines) of entry Cc1cc(OCCCc2c3n(c4c(-c5c(C)nn(C)c5C)c(Cl)ccc24)[C@H](C)CN(c2cc(OCc4cccnc4)cc4cc(C(=O)O)n(C)c24)C3=O)cc(C)c1Cl [Example 487]
280

Value wanted: GI50 (H929 human cancer cell lines) of entry Cc1nnn(-c2ccc3c(n2)c(N2C[C@@H](C)n4c(c(CCCOc5cc(C)c(Cl)c(C)c5)c5ccc(Cl)c(-c6c(C)nn(C)c6C)c54)C2=O)cn3C)n1 [Example 684]
520

Next:
Value wanted: GI50 (H929 human cancer cell lines) of entry Cc1cc(OCCCc2c3n(c4c(-c5c(C)ncnc5C)c(Cl)ccc24)[C@H](C)CN(c2cccc4c(C(=O)O)ccnc24)C3=O)cc(C)c1Cl [Example 225]
3300

Value wanted: GI50 (H929 human cancer cell lines) of entry Cc1cc(OCCCc2c3n(c4c(-c5c(C)nn(C)c5C)c(Cl)ccc24)[C@H](C)CN(c2cn(C)c4ccc(C#N)cc24)C3=O)cc(C)c1Cl [Example 208]
1600

Value wanted: GI50 (H929 human cancer cell lines) of entry Cc1cc(OCCCc2c3n(c4c(-c5c(C)nn(C)c5C)c(Cl)ccc24)[C@H](C)CN(c2cc(C(C)C)cc4cc(C(=O)O)n(C)c24)C3=O)cc(C)c1Cl [Example 356]
650

Value wanted: GI50 (H929 human cancer cell lines) of entry Cc1cc(OCCCc2c3n(c4c(-c5c(C)nn(C)c5C)c(Cl)ccc24)[C@H](C)CN(c2cn(C)c4ccc(-c5nnn[nH]5)cc24)C3=O)cc(C)c1Cl [Example 251]
250

Value wanted: GI50 (H929 human cancer cell lines) of entry Cc1cc(OCCCc2c3n(c4c(-c5c(C)nn(C)c5C)c(Cl)ccc24)[C@H](C)CN(c2cn(CCN4CCOCC4)c4cc(C(N)=O)ccc24)C3=O)cc(C)c1Cl [Example 402]
1100

Value wanted: GI50 (H929 human cancer cell lines) of entry Cc1cc(OCCCc2c3n(c4c(-c5c(C)nn(C)c5C)c(Cl)ccc24)[C@H](C)CN(c2cc(COCCN(C)C)cc4cc(C(=O)O)n(C)c24)C3=O)cc(C)c1Cl [Example 614]
690

Value wanted: GI50 (H929 human cancer cell lines) of entry Cc1cc(OCCCc2c3n(c4c(-c5c(C)nn(C)c5C)c(Cl)ccc24)[C@H](C)CN(c2cc(C(=O)O)cc4cc(C(=O)O)n(C)c24)C3=O)cc(C)c1Cl [Example 697]
2000

Value wanted: GI50 (H929 human cancer cell lines) of entry Cc1ccnc(Cn2c(C(=O)O)cc3cccc(N4C[C@@H](C)n5c(c(CCCOc6cc(C)c(Cl)c(C)c6)c6ccc(Cl)c(-c7c(C)nn(C)c7C)c65)C4=O)c32)c1 [Example 371]
300

Value wanted: GI50 (H929 human cancer cell lines) of entry Cc1cc(OCCCc2c3n(c4c(-c5c(C)nn(C)c5C)c(Cl)ccc24)[C@H](C)CN(c2cn(COCC[Si](C)(C)C)c4ccc(C(=O)O)cc24)C3=O)cc(C)c1Cl [Example 231]
2700
